# system name: panel of more than 300 wild-type and mutant kinases (313 kinase panel) (Homo sapiens, UniProt P22455, V550E)
# Sequence (P22455 22-802 V550E): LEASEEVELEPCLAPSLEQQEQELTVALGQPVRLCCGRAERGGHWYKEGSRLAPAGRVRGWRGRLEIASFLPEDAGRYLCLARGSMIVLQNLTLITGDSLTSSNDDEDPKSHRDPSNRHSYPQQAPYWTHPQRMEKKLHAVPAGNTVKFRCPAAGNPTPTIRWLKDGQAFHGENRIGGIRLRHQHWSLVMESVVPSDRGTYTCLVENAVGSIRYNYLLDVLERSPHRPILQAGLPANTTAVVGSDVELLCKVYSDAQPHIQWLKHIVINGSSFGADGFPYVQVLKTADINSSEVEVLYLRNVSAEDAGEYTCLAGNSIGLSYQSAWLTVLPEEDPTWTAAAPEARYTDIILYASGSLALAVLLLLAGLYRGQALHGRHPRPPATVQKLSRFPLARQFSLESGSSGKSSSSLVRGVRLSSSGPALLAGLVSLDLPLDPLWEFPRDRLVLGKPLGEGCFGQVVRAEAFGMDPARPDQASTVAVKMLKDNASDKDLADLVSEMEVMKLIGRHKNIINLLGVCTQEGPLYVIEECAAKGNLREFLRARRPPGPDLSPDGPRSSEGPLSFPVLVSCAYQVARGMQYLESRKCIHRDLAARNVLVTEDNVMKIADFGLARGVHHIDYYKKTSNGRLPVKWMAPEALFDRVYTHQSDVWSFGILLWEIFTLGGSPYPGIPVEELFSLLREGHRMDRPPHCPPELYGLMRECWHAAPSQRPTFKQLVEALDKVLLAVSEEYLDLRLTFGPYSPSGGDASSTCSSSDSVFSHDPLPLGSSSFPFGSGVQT
# protocol description: Kinase profiling in a biochemical assay panel (mobility shift assays and ELISA), %-inhibition at 1 μM; selectivity entropy
# measurement setup: kinase FGFR4(V550E); compound at 1 μM
endpoint label: %-inhibition of FGFR4(V550E) (%)
Answer with a number only, understood to be in %.

Worked set:
{"columns": ["chemical smiles", "reading unit", "%-inhibition of FGFR4(V550E)"],
 "data": [
  ["C[C@@H](Oc1cc(-c2cnn(C3CCNCC3)c2)cnc1N)c1c(Cl)ccc(F)c1Cl", "%", -0.358],
  ["CC(=O)Nc1cccc(-n2c(=O)n(C3CC3)c(=O)c3c(Nc4ccc(I)cc4F)n(C)c(=O)c(C)c32)c1", "%", -3.28],
  ["COc1cc(Nc2c(C#N)cnc3cc(OCCCN4CCN(C)CC4)c(OC)cc23)c(Cl)cc1Cl", "%", -3.46],
  ["Cc1ccc(C(=O)Nc2ccc(CN3CCN(C)CC3)c(C(F)(F)F)c2)cc1C#Cc1cnc2cccnn12", "%", -1.79],
  ["CO[C@H]1C[C@@H]2CC[C@@H](C)[C@@](O)(O2)C(=O)C(=O)N2CCCC[C@H]2C(=O)O[C@H]([C@H](C)C[C@@H]2CC[C@@H](OCCO)[C@H](OC)C2)CC(=O)[C@H](C)/C=C(\\C)[C@@H](O)[C@@H](OC)C(=O)[C@H](C)C[C@H](C)/C=C/C=C/C=C/1C", "%", -4.41]
]}

# input molecule: "COc1cc2c(Nc3ccc(Br)cc3F)ncnc2cc1OCC1CCN(C)CC1" ; wanted: its %-inhibition of FGFR4(V550E) -0.358

----------
# Tested on: forty-four human cancer cell lines
# protocol description: Cell proliferation assay (ATPlite, 72 hours) in the 44 cell line Oncolines panel
# Assay type: cell-based
# measurement setup: Homo sapiens, K562, read-out: cell panel IC50, K-562
The entries below are paired with their reported pIC50.
To interpret pIC50, take it as minus log10 of a concentration measured in moles per litre.

Here are 3 compounds together with their reported answers.
{"columns": ["chemical smiles", "system name", "pIC50"],
 "data": [
  ["Cc1ccc(Nc2nccc(N(C)c3ccc4c(C)n(C)nc4c3)n2)cc1S(N)(=O)=O", "forty-four human cancer cell lines", 4.90],
  ["CS(=O)(=O)CCNCc1ccc(-c2ccc3ncnc(Nc4ccc(OCc5cccc(F)c5)c(Cl)c4)c3c2)o1", "forty-four human cancer cell lines", 4.85],
  ["CN(C)C/C=C/C(=O)Nc1cc2c(Nc3ccc(F)c(Cl)c3)ncnc2cc1O[C@H]1CCOC1", "forty-four human cancer cell lines", 5.49]
]}

Field request: pIC50 | item: "Cc1cn(-c2cc(NC(=O)c3ccc(C)c(Nc4nccc(-c5cccnc5)n4)c3)cc(C(F)(F)F)c2)cn1" 7.59

Field request: pIC50 | item: "N#CC[C@H](C1CCCC1)n1cc(-c2ncnc3[nH]ccc23)cn1" 4.58

----------
# system name: panel of more than 300 wild-type and mutant kinases (313 kinase panel) (Homo sapiens, UniProt P16234, T674I)
# Sequence (P16234 24-1089 T674I): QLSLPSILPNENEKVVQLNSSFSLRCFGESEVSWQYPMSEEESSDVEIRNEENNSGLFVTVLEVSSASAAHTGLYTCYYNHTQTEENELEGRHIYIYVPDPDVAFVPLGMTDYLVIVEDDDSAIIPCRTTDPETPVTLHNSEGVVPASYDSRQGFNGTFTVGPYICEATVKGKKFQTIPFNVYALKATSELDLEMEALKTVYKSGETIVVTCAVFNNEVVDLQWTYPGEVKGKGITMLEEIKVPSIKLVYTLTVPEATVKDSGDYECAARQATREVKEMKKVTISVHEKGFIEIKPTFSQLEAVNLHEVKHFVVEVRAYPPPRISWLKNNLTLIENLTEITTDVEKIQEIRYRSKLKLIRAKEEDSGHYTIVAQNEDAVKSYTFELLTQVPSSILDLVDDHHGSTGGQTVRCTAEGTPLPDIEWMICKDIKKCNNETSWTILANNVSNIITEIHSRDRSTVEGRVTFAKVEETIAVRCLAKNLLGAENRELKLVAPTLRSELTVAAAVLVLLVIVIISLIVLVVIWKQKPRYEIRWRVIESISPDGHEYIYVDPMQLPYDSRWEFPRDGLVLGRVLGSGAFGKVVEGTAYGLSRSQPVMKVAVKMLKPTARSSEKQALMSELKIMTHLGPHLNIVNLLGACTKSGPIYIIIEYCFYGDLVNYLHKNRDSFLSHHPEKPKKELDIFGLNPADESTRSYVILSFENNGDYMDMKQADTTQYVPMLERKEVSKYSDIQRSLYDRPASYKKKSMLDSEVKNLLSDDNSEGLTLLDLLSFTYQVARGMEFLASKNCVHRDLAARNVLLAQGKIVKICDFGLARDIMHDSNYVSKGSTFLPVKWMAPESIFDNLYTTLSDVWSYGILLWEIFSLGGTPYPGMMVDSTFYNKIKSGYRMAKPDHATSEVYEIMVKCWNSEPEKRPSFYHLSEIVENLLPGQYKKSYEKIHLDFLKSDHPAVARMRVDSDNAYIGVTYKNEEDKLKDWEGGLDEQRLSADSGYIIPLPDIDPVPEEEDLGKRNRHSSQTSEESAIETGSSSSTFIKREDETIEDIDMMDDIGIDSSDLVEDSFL
# protocol description: Kinase profiling in a biochemical assay panel (mobility shift assays and ELISA), %-inhibition at 1 μM; selectivity entropy
# measurement setup: kinase PDGFRα(T674I); 1 μM
Reported %-inhibition of PDGFRα(T674I) values for a set of molecules
State just the number; it will be interpreted in %.

{"columns": ["chemical smiles", "%-inhibition of PDGFRα(T674I), %"],
 "data": [
  ["CO[C@H]1C[C@@H]2CC[C@@H](C)[C@@](O)(O2)C(=O)C(=O)N2CCCC[C@H]2C(=O)O[C@H]([C@H](C)C[C@@H]2CC[C@@H](OCCO)[C@H](OC)C2)CC(=O)[C@H](C)/C=C(\\C)[C@@H](O)[C@@H](OC)C(=O)[C@H](C)C[C@H](C)/C=C/C=C/C=C/1C", 0.248],
  ["CCCS(=O)(=O)Nc1ccc(F)c(C(=O)c2c[nH]c3ncc(-c4ccc(Cl)cc4)cc23)c1F", 1.49]
]}

GET /values?readout=%-inhibition of PDGFRα(T674I)&item= "N#CC[C@H](C1CCCC1)n1cc(-c2ncnc3[nH]ccc23)cn1" 17

Consider the molecule "CC(C)(C)c1nc(-c2cccc(NS(=O)(=O)c3c(F)cccc3F)c2F)c(-c2ccnc(N)n2)s1" and give its measured %-inhibition of PDGFRα(T674I). 18

----------
# System: forty-four human cancer cell lines
# protocol description: Cell proliferation assay (ATPlite, 72 hours) in the 44 cell line Oncolines panel
# Assay type: cell-based
# measurement setup: Homo sapiens, A204, cell line A-204; read-out: cell panel IC50, A-204
endpoint label: pIC50
Here pIC50 is given on a logarithmic scale as minus log10 of the concentration in mol/L.

{"columns": ["compound", "pIC50"],
 "data": [
  ["COc1cc([C@@H]2c3cc4c(cc3[C@@H](O[C@@H]3O[C@@H]5CO[C@@H](C)O[C@H]5[C@H](O)[C@H]3O)[C@H]3COC(=O)[C@H]23)OCO4)cc(OC)c1O [etoposide]", 6.19],
  ["CC(C)(C)c1nc(-c2cccc(NS(=O)(=O)c3c(F)cccc3F)c2F)c(-c2ccnc(N)n2)s1", 5.33],
  ["CC(C)C[C@H](NC(=O)[C@H](Cc1ccccc1)NC(=O)c1cnccn1)B(O)O", 5.68]
]}

Could you tell me which pIC50 is on file for "CC[C@]1(O)C[C@H]2CN(CCc3c([nH]c4ccccc34)[C@@](C(=O)OC)(c3cc4c(cc3OC)N(C=O)[C@H]3[C@@](O)(C(=O)OC)[C@H](OC(C)=O)[C@]5(CC)C=CCN6CC[C@]43[C@@H]65)C2)C1" ? 7.89

----------
# system name: panel of more than 300 wild-type and mutant kinases (313 kinase panel) (Homo sapiens, UniProt Q02763)
# Sequence (Q02763 23-1124, change not shown): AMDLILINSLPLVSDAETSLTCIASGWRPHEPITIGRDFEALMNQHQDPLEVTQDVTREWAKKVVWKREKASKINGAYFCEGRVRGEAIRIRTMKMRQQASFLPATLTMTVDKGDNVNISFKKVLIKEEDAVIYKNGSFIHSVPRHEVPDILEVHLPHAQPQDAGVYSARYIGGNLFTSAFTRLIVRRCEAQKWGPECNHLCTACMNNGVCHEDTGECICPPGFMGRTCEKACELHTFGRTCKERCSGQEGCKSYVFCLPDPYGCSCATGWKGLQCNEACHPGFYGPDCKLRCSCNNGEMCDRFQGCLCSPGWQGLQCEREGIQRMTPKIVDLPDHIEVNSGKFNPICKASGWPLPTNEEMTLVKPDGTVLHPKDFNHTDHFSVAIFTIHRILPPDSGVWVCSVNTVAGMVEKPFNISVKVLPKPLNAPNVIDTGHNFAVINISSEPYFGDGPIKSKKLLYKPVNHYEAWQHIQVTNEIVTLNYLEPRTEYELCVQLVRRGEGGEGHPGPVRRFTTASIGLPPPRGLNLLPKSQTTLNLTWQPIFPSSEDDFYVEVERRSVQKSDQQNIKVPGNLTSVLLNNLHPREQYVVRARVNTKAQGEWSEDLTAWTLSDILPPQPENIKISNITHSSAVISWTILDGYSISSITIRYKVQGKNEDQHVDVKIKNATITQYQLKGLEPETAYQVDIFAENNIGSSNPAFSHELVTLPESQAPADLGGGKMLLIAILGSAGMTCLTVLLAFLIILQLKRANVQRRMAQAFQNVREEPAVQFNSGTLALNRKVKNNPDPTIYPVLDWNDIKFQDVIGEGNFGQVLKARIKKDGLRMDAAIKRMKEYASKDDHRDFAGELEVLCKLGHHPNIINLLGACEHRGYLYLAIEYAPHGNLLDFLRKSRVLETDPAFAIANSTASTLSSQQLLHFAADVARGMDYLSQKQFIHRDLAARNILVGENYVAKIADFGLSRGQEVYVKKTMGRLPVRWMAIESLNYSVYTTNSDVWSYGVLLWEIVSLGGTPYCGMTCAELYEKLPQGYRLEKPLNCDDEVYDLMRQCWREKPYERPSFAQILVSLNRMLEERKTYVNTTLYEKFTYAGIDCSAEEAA
# protocol description: Kinase profiling in a biochemical assay panel (mobility shift assays and ELISA), %-inhibition at 1 μM; selectivity entropy
# measurement setup: kinase TIE2; 1 μM
Reported %-inhibition of TIE2 values for the following molecules.
Please reply with the bare figure in % and do not write the unit itself.

Answered examples (5):
{"columns": ["molecule", "endpoint label", "numeric readout"],
 "data": [
  ["COc1cc2c(Nc3ccc(Br)cc3F)ncnc2cc1OCC1CCN(C)CC1 [vandetanib]", "%-inhibition of TIE2", 85],
  ["CC(C)(C)c1nc(-c2cccc(NS(=O)(=O)c3c(F)cccc3F)c2F)c(-c2ccnc(N)n2)s1 [dabrafenib]", "%-inhibition of TIE2", 81],
  ["CNC(=O)c1cc(Oc2ccc(NC(=O)Nc3ccc(Cl)c(C(F)(F)F)c3)c(F)c2)ccn1 [regorafenib]", "%-inhibition of TIE2", 47],
  ["Cc1ccc(Nc2nccc(N(C)c3ccc4c(C)n(C)nc4c3)n2)cc1S(N)(=O)=O [pazopanib]", "%-inhibition of TIE2", 26],
  ["Cc1ccc(C(=O)Nc2ccc(CN3CCN(C)CC3)c(C(F)(F)F)c2)cc1C#Cc1cnc2cccnn12 [ponatinib]", "%-inhibition of TIE2", 101]
]}

Looking for the measured %-inhibition of TIE2 of Cc1cn(-c2cc(NC(=O)c3ccc(C)c(Nc4nccc(-c5cccnc5)n4)c3)cc(C(F)(F)F)c2)cn1 [nilotinib] , can you help? 41

# get_value(readout='%-inhibition of TIE2', item= CO[C@H]1C[C@@H]2CC[C@@H](C)[C@@](O)(O2)C(=O)C(=O)N2CCCC[C@H]2C(=O)O[C@H]([C@H](C)C[C@@H]2CC[C@@H](OC(=O)C(C)(CO)CO)[C@H](OC)C2)CC(=O)[C@H](C)/C=C(\C)[C@@H](O)[C@@H](OC)C(=O)[C@H](C)C[C@H](C)/C=C/C=C/C=C/1C [temsirolimus] ) -8

----------
# system name: panel of more than 300 wild-type and mutant kinases (313 kinase panel) (Homo sapiens, UniProt Q13470)
# protocol description: Kinase profiling in a biochemical assay panel (mobility shift assays and ELISA), %-inhibition at 1 μM; selectivity entropy
# measurement setup: kinase TNK1; 1 μM
Items are presented alongside their recorded %-inhibition of TNK1.
Use % as the unit, but write only the number.

Item "Cc1ccc(Nc2nccc(N(C)c3ccc4c(C)n(C)nc4c3)n2)cc1S(N)(=O)=O" has what recorded %-inhibition of TNK1? 42

May I ask what %-inhibition of TNK1 has been recorded for COc1cc2nccc(Oc3ccc(NC(=O)C4(C(=O)Nc5ccc(F)cc5)CC4)cc3)c2cc1OC [cabozantinib] ? 89

Using the record for "CO[C@H]1C[C@@H]2CC[C@@H](C)[C@@](O)(O2)C(=O)C(=O)N2CCCC[C@H]2C(=O)O[C@H]([C@H](C)C[C@@H]2CC[C@@H](OCCO)[C@H](OC)C2)CC(=O)[C@H](C)/C=C(\C)[C@@H](O)[C@@H](OC)C(=O)[C@H](C)C[C@H](C)/C=C/C=C/C=C/1C" , report its %-inhibition of TNK1. -0.4

Suppose we examine the molecule "COc1cc2c(Nc3ccc(Br)cc3F)ncnc2cc1OCC1CCN(C)CC1" ; what %-inhibition of TNK1 value has been reported? 23

Param item = "N#CC[C@H](C1CCCC1)n1cc(-c2ncnc3[nH]ccc23)cn1" ; retrieve measured %-inhibition of TNK1. 31

Look up %-inhibition of TNK1 for this molecule: "CCCS(=O)(=O)Nc1ccc(F)c(C(=O)c2c[nH]c3ncc(-c4ccc(Cl)cc4)cc23)c1F" 13

I am curious: what %-inhibition of TNK1 value has been reported for "COc1cc(Nc2c(C#N)cnc3cc(OCCCN4CCN(C)CC4)c(OC)cc23)c(Cl)cc1Cl" ? 11
